Cited source: patent US20230123140A1

- Assay protocol: Toxicokinetics in the 4-week mini-pig toxicity study
- Format: in vivo
- Experimental setup: both sexes, Gottingen, minipig, plasma; Day 28, 450 mg/kg oral, average M/F minipigs

# Smiles string, Cmax, ng/mL
measured = [
    ("Fc1ccc2c3c([nH]c2c1)CCN(c1ccc2oc(N4CCOCC4)nc2c1)C3", 9840),
]

###

- Assay protocol: 4-week toxicity study in mice followed by 2 weeks of recovery
- Assay type: in vivo, mouse
- Experimental setup: both sexes, CD1, mouse, in vivo, po

# Smiles string, NOAEL at 4 weeks
records = [
    ("Fc1ccc2c3c([nH]c2c1)CCN(c1ccc2oc(N4CCOCC4)nc2c1)C3", "300 mg/kg/day"),
]
